Target: PDZRN4_1, Q6ZMN7
Sequence (Q6ZMN7 213-318): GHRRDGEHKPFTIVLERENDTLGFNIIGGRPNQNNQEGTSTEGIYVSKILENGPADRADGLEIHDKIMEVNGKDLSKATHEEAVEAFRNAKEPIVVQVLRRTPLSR
Assay: holdup assay
Parameters: key: below the threshold = too weak to quantify, mostly under pKd 3.1 to 4
Details: plain residues with an end cap or a label only (N-terminal biotin on a linker: ado-ado)
value_type: pKd

Study these solved cases before continuing.
- PAPSSGKDYV [CLDN1, O95832]: below the threshold
- TLPRKRMSSI [GPRC6A, Q5T6X5]: below the threshold
- QMNQTLPVQV [EPHB3, P54753]: below the threshold
- FNSYSLTGYV [CLDN2, P57739]: 3.49
- SKSNFGSEPL [KIF17, Q9P2E2]: below the threshold

Hi! Can you tell me pKd for each of these binders?
1. HSGYRLNDYV [CLDN14, O95500]
2. GNSVLKSTQF [SLC22A12, Q96S37]
3. RKPKPSSSCC [RAB9A, P51151]

below the threshold
below the threshold
below the threshold

Each of the following entries comes with a recorded value; kindly state pKd for each.
1. QGLAERISVL [PRKD2, Q9BZL6]
2. LRSPRTPSEV [OR10G3, Q8NGC4]
3. YRLAQESGLV [ABCC6, O95255]
4. RRRESYSTTV [EVI5, O60447]

3.66
below the threshold
below the threshold
4.23

Below is a list of binders. For each, state its recorded pKd.
1. DTTVPESEDL [MYOZ2, Q9NPC6]
2. EKKTLIGIKL [GOT1L1, Q8NHS2]

below the threshold
below the threshold

State recorded pKd for all listed binders.
1. RHGSCVETSL [TMEM151B, Q8IW70]
2. AKPSRISTVV [IQSEC2, Q5JU85]

[5.27, "below the threshold"]

Value source: paper PMC9482650
